Tested on: human plasma proteases
protocol details: in vitro
Where a SMILES comes first, the peptide text is derived from it. [ ]: non-standard residue; d: D form. 2Thi = N[C@@H](Cc1cccs1)C(=O)O; Aib = CC(C)(N)C(=O)O
parameter: remaining at 12 h, 0.1 mg/mL

remaining at 12 h, 0.1 mg/mL reading for CC(C)C[C@H](NC(=O)[C@H](Cc1ccc(O)cc1)NC(=O)[C@H](CCCCN)NC(=O)[C@H](CC(C)C)NC(=O)[C@H](CC(C)C)NC(=O)[C@H](CCCCN)NC(=O)[C@H](CCCCN)NC(=O)[C@H](Cc1ccccc1)NC(=O)[C@H](CC(C)C)NC(=O)[C@H](CCCNC(=N)N)NC(=O)C(C)(C)N)C(=O)N[C@@H](CCCNC(=N)N)C(=O)N[C@@H](CCCCN)C(=O)N[C@@H](Cc1cccs1)C(N)=O [UP09] (H-[Aib]RLFKKLLKYLRK[2Thi]-NH2; N-terminus assumed) : > 50%
